The values you see were collected from patent US4593043A.

Property: Percentage of regenerated tissue, 4th day; scope: individual molecules
Test system: burned cutaneous area of the back
Assay: Cutaneous regeneration from burns
Assay type: in vivo
Settings: rabbits; oral, 20 mg Kg^-1 once a day for seven days; 4th day from treatment
Procedure: The ability of the compounds of formula (I) to speed up the cutaneous regeneration from burns has been tested in rabbits. A 4 cm^2 cutaneous area of the average-top zone of the test animal back was burned. The compounds were orally administered in aqueous solution at the dose of 20 mg Kg^-1 once a day for seven days. The area of cutaneous regeneration, i.e. the area of the newly formed tissue was then measured (Table III).
Structures can show the parent of a compound that is named as a salt.
Readout Label: Percentage of regenerated tissue, 4th day (%)

Molecule: C[N+](C)(C)CC(CC(=O)O)OC(=O)CCCCS (stereo not drawn) [5-mercapto valeryl carnitine Cl]
Units: %
Obs Value: 20

Molecule: CC(S)C(=O)OC(CC(=O)O)C[N+](C)(C)C (stereo not drawn) [2-mercapto propionyl carnitine Cl]
Units: %
Obs Value: 30

Molecule: C[N+](C)(C)CC(CC(=O)O)OC(=O)CCCS (stereo not drawn) [4-mercapto butyryl carnitine Cl, hydrochloride]
Units: %
Obs Value: 25

Molecule: C[N+](C)(C)CC(CC(=O)O)OC(=O)CCS (stereo not drawn) [3-mercapto propionyl carnitine Cl, hydrochloride]
Units: %
Obs Value: 40

Molecule: CCC(S)C(=O)OC(CC(=O)O)C[N+](C)(C)C (stereo not drawn) [2-mercapto butyryl carnitine Cl]
Units: %
Obs Value: 35

Molecule: C[N+](C)(C)CC(CC(=O)O)OC(=O)CS (stereo not drawn) [mercapto acetyl carnitine Cl]
Units: %
Obs Value: 35

---

System: damage provoked by irradiation in rats
Assay: Protection against X-ray exposure (survival after irradiation)
Format: in vivo, Albino Wister rats
Conditions: 30-40 mg Kg^-1 1 hour before irradiation and 15 mg Kg^-1 per day in the subsequent 20 days, day 20
Structures can show the parent of a compound that is named as a salt.
Readout Label: Percentage of surviving animals, day 20 from irradiation (%)

Molecule: C[N+](C)(C)CC(CC(=O)O)OC(=O)CCCS (stereo not drawn) [4-mercapto butyryl carnitine Cl, hydrochloride]
Measurement Target: damage provoked by irradiation in rats
Obs Value: 80
//
Molecule: CC(S)C(=O)OC(CC(=O)O)C[N+](C)(C)C (stereo not drawn) [2-mercapto propionyl carnitine Cl]
Measurement Target: damage provoked by irradiation in rats
Obs Value: 70
//
Molecule: CCC(S)C(=O)OC(CC(=O)O)C[N+](C)(C)C (stereo not drawn) [2-mercapto butyryl carnitine Cl]
Measurement Target: damage provoked by irradiation in rats
Obs Value: 85
//
Molecule: C[N+](C)(C)CC(CC(=O)O)OC(=O)CCCCS (stereo not drawn) [5-mercapto valeryl carnitine Cl]
Measurement Target: damage provoked by irradiation in rats
Obs Value: 70
//
Molecule: C[N+](C)(C)CC(CC(=O)O)OC(=O)CCS (stereo not drawn) [3-mercapto propionyl carnitine Cl, hydrochloride]
Measurement Target: damage provoked by irradiation in rats
Obs Value: 80
//
Molecule: C[N+](C)(C)CC(CC(=O)O)OC(=O)CS (stereo not drawn) [mercapto acetyl carnitine Cl]
Measurement Target: damage provoked by irradiation in rats
Obs Value: 45

---

Test: Acute toxicity in the mouse, Weil method
Settings: in vivo, ip
Property: LD50; scope: individual compounds

Compound: CC(S)C(=O)OC(CC(=O)O)C[N+](C)(C)C (stereo not shown)
LD50: 294 mg/kg
//
Compound: C[N+](C)(C)CC(CC(=O)O)OC(=O)CCCCS (stereo not shown)
LD50: 281 mg/kg
//
Compound: C[N+](C)(C)CC(CC(=O)O)OC(=O)CS (stereo not shown)
LD50: 308 mg/kg
//
Compound: CCC(S)C(=O)OC(CC(=O)O)C[N+](C)(C)C (stereo not shown)
LD50: 294 mg/kg
